Test system: Platelet-derived growth factor receptor alpha (Homo sapiens), P16234 [V561D]
Sequence (P16234 whole entry V561D): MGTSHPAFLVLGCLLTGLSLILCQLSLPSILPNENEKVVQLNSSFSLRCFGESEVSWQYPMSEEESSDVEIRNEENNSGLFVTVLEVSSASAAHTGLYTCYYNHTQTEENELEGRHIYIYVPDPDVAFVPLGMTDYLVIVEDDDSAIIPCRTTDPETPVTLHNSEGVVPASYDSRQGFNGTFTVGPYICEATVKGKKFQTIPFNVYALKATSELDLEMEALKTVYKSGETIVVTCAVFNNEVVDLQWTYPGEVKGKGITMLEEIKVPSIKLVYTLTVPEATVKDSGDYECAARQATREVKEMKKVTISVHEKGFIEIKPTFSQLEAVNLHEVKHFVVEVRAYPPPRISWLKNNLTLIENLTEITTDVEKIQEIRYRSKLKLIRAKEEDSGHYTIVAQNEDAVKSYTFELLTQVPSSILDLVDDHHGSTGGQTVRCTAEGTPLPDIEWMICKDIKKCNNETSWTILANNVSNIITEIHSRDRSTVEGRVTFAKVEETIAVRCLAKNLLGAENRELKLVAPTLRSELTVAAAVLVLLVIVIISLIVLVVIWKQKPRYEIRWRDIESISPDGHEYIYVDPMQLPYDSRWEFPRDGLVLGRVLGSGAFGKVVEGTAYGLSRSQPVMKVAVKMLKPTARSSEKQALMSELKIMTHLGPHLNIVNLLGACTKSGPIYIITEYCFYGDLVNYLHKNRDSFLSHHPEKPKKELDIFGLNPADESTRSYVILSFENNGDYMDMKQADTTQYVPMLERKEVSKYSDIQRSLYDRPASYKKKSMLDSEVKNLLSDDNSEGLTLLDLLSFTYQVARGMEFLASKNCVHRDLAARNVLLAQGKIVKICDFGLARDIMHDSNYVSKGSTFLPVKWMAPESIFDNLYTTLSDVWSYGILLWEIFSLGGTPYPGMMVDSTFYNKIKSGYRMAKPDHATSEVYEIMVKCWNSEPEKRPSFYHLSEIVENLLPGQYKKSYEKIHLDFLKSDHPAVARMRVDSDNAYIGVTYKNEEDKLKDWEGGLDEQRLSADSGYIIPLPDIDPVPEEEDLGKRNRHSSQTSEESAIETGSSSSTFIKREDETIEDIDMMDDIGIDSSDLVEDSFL
Settings: at 0.1 µM
This listing pairs molecules with measured inhibition.
OBSERVED PROPERTY: inhibition (%)

{"MOLECULE": "Cc1nnc(-c2ccc(C)c(-c3ccc(C(=O)Nc4cccc(C#N)c4)cc3)c2)o1", "REPORTED RESULT": 3.46}
{"MOLECULE": "CS(=O)(=O)CCNCc1nc(-c2ccc3ncnc(Nc4ccc(F)c(Cl)c4)c3c2)cs1", "REPORTED RESULT": 2.8}
{"MOLECULE": "CN(C)c1cc2c(Nc3ccc4nc(Cc5ccccc5)[nH]c4c3)ncnc2cn1", "REPORTED RESULT": 5.97}
{"MOLECULE": "COc1cc2ncn(-c3cc(O[C@@H](C)c4ccccc4Cl)c(C(N)=O)s3)c2cc1OC", "REPORTED RESULT": 32.4}
{"MOLECULE": "Fc1cccc(COc2ccc(Nc3ncnc4cc(-c5ccc[nH]5)sc34)cc2Cl)c1", "REPORTED RESULT": 2.42}
{"MOLECULE": "O=C1Nc2ccc(C(=O)c3ccco3)cc2C1=Cc1cc(Cl)c(O)c(Cl)c1", "REPORTED RESULT": 7.12}
{"MOLECULE": "Fc1cccc(COc2ccc(Nc3ncnc4sc(-c5cccs5)cc34)cc2Cl)c1", "REPORTED RESULT": 4.39}
{"MOLECULE": "COc1ccc(-c2ccncc2)cc1C(N)=O", "REPORTED RESULT": 3.41}
{"MOLECULE": "COc1cccc(-n2ncc3c(N/N=C/c4cccc(F)c4)ncnc32)c1", "REPORTED RESULT": 8.22}
{"MOLECULE": "O=C1NC(=O)C(N2CCc3ccccc32)=C1c1ccc(Cl)cc1", "REPORTED RESULT": 3.93}
{"MOLECULE": "c1cnn2ncc(-c3ccnc(Nc4ccc5c(c4)OCCO5)n3)c2c1", "REPORTED RESULT": 23.3}
{"MOLECULE": "O=C(Nc1n[nH]c2nc(-c3ccco3)c(Br)cc12)C1CC1", "REPORTED RESULT": 0.75}
{"MOLECULE": "Nc1nc(-c2ccccn2)c(-c2ccc3ncccc3n2)s1", "REPORTED RESULT": -0.56}
{"MOLECULE": "CCCN1CCC(Oc2cc(Nc3nc(Nc4cccc(F)c4C(N)=O)c4cc[nH]c4n3)c(OC)cc2Cl)CC1", "REPORTED RESULT": 1.89}
{"MOLECULE": "CCn1c(-c2nonc2N)nc2cncc(C(=O)N3CC[C@H](N)C3)c21", "REPORTED RESULT": 2.86}
{"MOLECULE": "Nc1nc(-c2ccc3c(c2)C(=Cc2cc(Br)c(O)c(Br)c2)C(=O)N3)cs1", "REPORTED RESULT": 2.02}
{"MOLECULE": "CC(C)=Cc1cccc2c1/C(=N/Nc1ccc(S(N)(=O)=O)cc1)C(=O)N2", "REPORTED RESULT": 15}
{"MOLECULE": "CC1=C(C(=O)Nc2ccc3[nH]ncc3c2)C(c2ccc(Cl)c(Cl)c2)CC(=O)N1 (configuration not stated)", "REPORTED RESULT": 0.48}
{"MOLECULE": "NCc1ccc(-c2nc(-c3ccc(Cl)c(O)c3)c(-c3ccncc3)[nH]2)cc1", "REPORTED RESULT": 5.6}
{"MOLECULE": "CCn1c(-c2nonc2N)nc2c(C#CC(C)(C)O)nc(CN3CCCC3)cc21", "REPORTED RESULT": 2.19}
{"MOLECULE": "NS(=O)(=O)c1cccc(-c2ccc3c(NC(=O)C4CC4)n[nH]c3c2)c1", "REPORTED RESULT": 3.88}
{"MOLECULE": "CS(=O)(=O)Nc1ccc(N/C=C2\\C(=O)Nc3ccccc32)cc1", "REPORTED RESULT": 15}
{"MOLECULE": "CC1=C(C(=O)Nc2ccc3[nH]ncc3c2)C(c2ccc(F)cc2)NC(=O)N1 (configuration not stated)", "REPORTED RESULT": 3.01}
{"MOLECULE": "CCn1c(-c2nonc2N)nc2c(C#CC(C)(C)O)nc(OC[C@@H](N)c3ccccc3)cc21", "REPORTED RESULT": -2.3}
{"MOLECULE": "N#Cc1c(NC(=O)c2cccc3ccccc23)sc2c1CCCC2", "REPORTED RESULT": 3.45}
{"MOLECULE": "CCn1c(-c2nonc2N)nc2c(N3CCCC3)nccc21", "REPORTED RESULT": 3.21}
{"MOLECULE": "CCn1c(-c2nonc2N)nc2ccncc21", "REPORTED RESULT": 2.31}
{"MOLECULE": "COc1cc2ncn(-c3cc(O[C@H](C)c4ccccc4Cl)c(C(N)=O)s3)c2cc1OC", "REPORTED RESULT": 50.5}
{"MOLECULE": "CCN1CCC(CC(=O)Nc2n[nH]c3nc(-c4cccs4)c(Br)cc23)CC1", "REPORTED RESULT": 2.04}
{"MOLECULE": "CCCN1CCC=C(c2ccc(Nc3nc(Nc4ccccc4C(N)=O)c4cc[nH]c4n3)c(C)c2)C1", "REPORTED RESULT": 5.63}
{"MOLECULE": "COc1cc2ncn(-c3cc(OCc4ccccc4Cl)c(C(N)=O)s3)c2cc1OC", "REPORTED RESULT": 39.1}
{"MOLECULE": "CCc1cccc(NC(=O)Nc2ccc(Oc3ccc4nc(NC(=O)OC)[nH]c4c3)cc2)c1", "REPORTED RESULT": 86.6}

----------
Target: Mitogen-activated protein kinase 12 (Homo sapiens) (UniProt P53778)
Sequence (P53778 whole entry): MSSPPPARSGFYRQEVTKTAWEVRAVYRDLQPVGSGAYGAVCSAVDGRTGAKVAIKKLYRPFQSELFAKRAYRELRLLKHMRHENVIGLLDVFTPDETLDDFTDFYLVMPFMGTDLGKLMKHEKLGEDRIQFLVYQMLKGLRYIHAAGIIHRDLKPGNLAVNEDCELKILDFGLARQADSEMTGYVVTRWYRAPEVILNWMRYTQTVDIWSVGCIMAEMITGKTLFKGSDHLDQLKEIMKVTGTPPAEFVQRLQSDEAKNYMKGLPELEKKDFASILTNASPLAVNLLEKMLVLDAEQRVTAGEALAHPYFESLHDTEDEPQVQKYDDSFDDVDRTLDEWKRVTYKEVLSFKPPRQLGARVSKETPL
Details: at 0.1 µM
Description: GSK_PKIS: P38gamma mean inhibition at 0.1 uM [Nanosyn]

{"INPUT SMILES": "NS(=O)(=O)c1cccc(-c2ccc3c(NC(=O)C4CC4)n[nH]c3c2)c1", "inhibition [%]": -0.74}
{"INPUT SMILES": "COc1cc2ncn(-c3cc(O[C@@H](C)c4ccccc4Cl)c(C(N)=O)s3)c2cc1OC", "inhibition [%]": 3.18}
{"INPUT SMILES": "COc1cc2ncn(-c3cc(OCc4ccccc4C(F)(F)F)c(C(N)=O)s3)c2cc1OC", "inhibition [%]": 4.2}
{"INPUT SMILES": "COc1ccc(COc2ccc(Cc3cnc(N)nc3N)cc2OC)cc1", "inhibition [%]": -1.2}
{"INPUT SMILES": "NC(=O)c1cccc(Nc2nccc(Nc3cccc4[nH]ncc34)n2)c1", "inhibition [%]": -1.53}
{"INPUT SMILES": "CCn1c(-c2nonc2N)nc2c(N3CCCC3)nccc21", "inhibition [%]": 0.01}
{"INPUT SMILES": "NCc1ccc(-c2nc(-c3ccc(Cl)c(O)c3)c(-c3ccncc3)[nH]2)cc1", "inhibition [%]": -0.97}
{"INPUT SMILES": "Cc1ccc(C(=O)NC2CCCCC2)cc1-c1ccc(C(=O)NCC2CC2)cc1", "inhibition [%]": -0.98}
{"INPUT SMILES": "Cc1ccc(NC(=O)c2ccnc(N3CCCC3)c2)cc1-c1ccc(C(=O)NCC2CC2)cc1", "inhibition [%]": 4.49}
{"INPUT SMILES": "Cn1cc(C=C2C(=O)Nc3cccnc32)c2ccccc21", "inhibition [%]": 2.25}
{"INPUT SMILES": "CCn1c(-c2nonc2N)nc2c(C#CC(C)(C)O)nc(CN3CCCC3)cc21", "inhibition [%]": 1.31}
{"INPUT SMILES": "COc1ccccc1Nc1ncc(-c2ccccc2)o1", "inhibition [%]": 4.14}

----------
Target: Serine/threonine-protein kinase PAK 5 (Homo sapiens) (UniProt Q9P286)
Sequence (Q9P286 whole entry, looked up): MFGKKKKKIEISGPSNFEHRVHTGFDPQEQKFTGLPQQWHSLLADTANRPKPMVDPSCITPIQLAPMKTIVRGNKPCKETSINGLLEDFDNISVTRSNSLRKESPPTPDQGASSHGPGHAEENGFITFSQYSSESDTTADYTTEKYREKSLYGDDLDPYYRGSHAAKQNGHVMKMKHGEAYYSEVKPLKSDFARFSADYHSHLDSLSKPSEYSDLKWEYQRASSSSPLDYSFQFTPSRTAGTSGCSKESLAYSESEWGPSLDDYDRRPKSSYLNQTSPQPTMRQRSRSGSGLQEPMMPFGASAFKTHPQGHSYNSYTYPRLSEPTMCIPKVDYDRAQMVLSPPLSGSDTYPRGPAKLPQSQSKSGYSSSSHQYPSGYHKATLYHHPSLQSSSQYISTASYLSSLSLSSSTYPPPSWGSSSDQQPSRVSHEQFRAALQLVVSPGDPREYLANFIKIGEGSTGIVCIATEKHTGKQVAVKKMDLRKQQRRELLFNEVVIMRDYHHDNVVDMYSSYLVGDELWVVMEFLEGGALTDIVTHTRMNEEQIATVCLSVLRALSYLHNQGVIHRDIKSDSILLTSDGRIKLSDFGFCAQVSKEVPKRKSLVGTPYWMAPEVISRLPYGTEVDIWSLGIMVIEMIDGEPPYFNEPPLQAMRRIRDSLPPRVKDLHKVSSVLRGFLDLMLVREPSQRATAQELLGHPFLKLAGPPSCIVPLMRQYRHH
Conditions: at 1 µM
Description: GSK_PKIS: PAK5 mean inhibition at 1 uM [Nanosyn]
This listing pairs molecules with measured inhibition.

{"MOLECULE": "Cc1cc(O)cc(C)c1/C=C/c1cncc(-c2nn[nH]n2)c1", "inhibition / %": -1.45}
{"MOLECULE": "COc1cc2c(cc1Nc1nc(N3CCc4ccccc43)c3cc[nH]c3n1)N(C(=O)CN(C)C)CC2", "inhibition / %": -1.41}
{"MOLECULE": "CS(=O)(=O)Nc1ccc(N/C=C2\\C(=O)Nc3ccccc32)cc1", "inhibition / %": 0.84}
{"MOLECULE": "CC1=C(C(=O)Nc2ccc3[nH]ncc3c2)C(c2ccc3ccccc3c2)CC(=O)N1 (configuration not stated)", "inhibition / %": 3.39}
{"MOLECULE": "Fc1cccc(COc2ccc(Nc3ncnc4sc(-c5cccs5)cc34)cc2Cl)c1", "inhibition / %": -7.05}
{"MOLECULE": "CS(=O)(=O)CCN(CC#N)Cc1ccc(-c2ccc3ncnc(Nc4ccc(OCc5cccc(F)c5)c(Cl)c4)c3c2)o1", "inhibition / %": -0.85}
{"MOLECULE": "NCc1ccc(-c2nc(-c3ccc(Cl)c(O)c3)c(-c3ccncc3)[nH]2)cc1", "inhibition / %": -6.81}
{"MOLECULE": "CC1=C(C(=O)Nc2ccc3[nH]ncc3c2)C(c2ccc(Cl)c(Cl)c2)CC(=O)N1 (configuration not stated)", "inhibition / %": -3.2}
{"MOLECULE": "O=C(Nc1n[nH]c2nc(-c3ccco3)c(Br)cc12)C1CC1", "inhibition / %": -1.99}
{"MOLECULE": "Cc1ccc(C(=O)NC2CCCCC2)cc1-c1ccc(C(=O)NCC2CC2)cc1", "inhibition / %": 13.6}
{"MOLECULE": "CNC(=O)c1cncc(/C=C/c2c(Cl)cccc2Cl)c1", "inhibition / %": 6.55}
{"MOLECULE": "CC(=O)Nc1cccc(C#Cc2cncnc2Nc2ccc(OCc3cccc(F)c3)c(Cl)c2)n1", "inhibition / %": 9.12}

Cited source for all entries: ChEMBL document CHEMBL1961873
